- TEST: Oral bioavailability in dog
- Type: ADME, organism-based, Canis lupus familiaris
- RECORDED_CONDITIONS: in vivo
# reported bioavailability; entries follow
Just the number please, in %, no unit attached.

COMPOUND	bioavailability (%)
Cc1cc(-c2c(OCC[C@@H]3CCCC(C(F)(F)F)N3)c3cc(C(=O)Nc4ccncn4)c(Cl)cc3[nH]c2=O)cc(C)c1C (some centres not stated)	14.6

Let us move to another entry and its bioavailability.
Input: Look up bioavailability of Cc1cc(-c2c(O)nc3cc(Cl)c(C(=O)Nc4ccncn4)cc3c2OCC[C@@H]2CCCCN2)cc(C)c1C and report it.
Output: 4.4
